Items are presented alongside their recorded Post-emergence action against DIGSA in %.
Tested on: DIGSA
Assay: Post-emergence herbicidal action against DIGSA
Format: in vivo, Digitaria sanguinalis
Conditions: 80 g/ha, visual assessment about 3 weeks after treatment vs untreated controls
Write the number in % without appending the unit.

Reference set, count: 2
| compound | targetOfAssay | valueObserved |
| --- | --- | --- |
| CC#Cc1cc(F)c(C2=C(OC(=O)OCC)C3(CCC(COC)C3)NC2=O)c(OC)c1 (centres unmarked) [Example P-63] | DIGSA | 100 |
| CC#Cc1cc(Cl)c(C2=C(OC(=O)OCC)C3(CCC(COC)C3)NC2=O)c(CC)c1 (centres unmarked) [Example P-06] | DIGSA | 100 |

Give the reported value of Post-emergence action against DIGSA in % for this record: CC#Cc1cc(C)c(C2=C(OC(=O)OCC)C3(CCC(COC)C3)NC2=O)c(Br)c1 (centres unmarked) [Example P-31]
100

# return recorded Post-emergence action against DIGSA in % for input CC#Cc1cc(C)c(C2=C(O)C3(CCC(COCC)C3)NC2=O)c(Br)c1 (centres unmarked) [Example I-20]
90

Report Post-emergence action against DIGSA in %, nothing else, for this compound: CC#Cc1cc(C)c(C2=C(OC(=O)C(C)C)C3(CCC(COCC)C3)NC2=O)c(OC)c1 (centres unmarked) [Example P-60]
90

Note down Post-emergence action against DIGSA in % recorded for C=CCOCC1CCC2(C1)NC(=O)C(c1c(F)cc(C#CC)cc1OC)=C2OC(=O)OCC (centres unmarked) [Example P-78]
90

Please give measured Post-emergence action against DIGSA in % of the following entry: CC#Cc1cc(Br)c(C2=C(O)C3(CCC(COC)C3)NC2=O)c(OCC)c1 (centres unmarked) [Example I-69]
90

Give Post-emergence action against DIGSA in % for the following compound: C=CCOCC1CCC2(C1)NC(=O)C(c1c(C)cc(C#CC)cc1Br)=C2OC(=O)OCC (centres unmarked) [Example P-88]
90

----------
Listed here are compounds together with their documented Pre-emergence action against ALOMY in %.
System: ALOMY
Assay: Pre-emergence herbicidal action against ALOMY
Assay type: in vivo, Alopecurus myosuroides
Conditions: 320 g/ha, scored visually after 3 weeks vs untreated controls
Numbers only here, please. The scale is %.

Field: example entries. Status: answers known.
| compound | Pre-emergence action against ALOMY in % / % |
| --- | --- |
| CC#Cc1cc(Br)c(C2=C(OC(=O)C(C)C)C3(CCC(COC)C3)NC2=O)c(OC)c1 (stereo not shown) | 100 |
| C#CCOCC1CCC2(C1)NC(=O)C(c1c(C)cc(C#CC)cc1Cl)=C2O (stereo not shown) [Example I-79] | 100 |

Determine its reported Pre-emergence action against ALOMY in %: CC#Cc1cc(C)c(C2=C(O)C3(CCC(COCCOC)C3)NC2=O)c(OC)c1 (stereo not shown)
100

Tell me Pre-emergence action against ALOMY in % reported for C=CCOCC1CCC2(C1)NC(=O)C(c1c(C)cc(C#CC)cc1Br)=C2O (stereo not shown) [Example I-67]
100

----------
Tested on: VIOTR
Assay: Pre-emergence herbicidal action against VIOTR
Type: in vivo, Viola tricolor
Details: 320 g/ha
quantity: Pre-emergence action against VIOTR in %
Number plus unit, in that order.

Observe how each entry below is paired with its result.
| compound | targetOfAssay | valueObserved |
| --- | --- | --- |
| C#CCOCC1CCC2(C1)NC(=O)C(c1c(C)cc(C#CC)cc1Cl)=C2O (centres unmarked) [Example I-78] | VIOTR | 100% |
| CC#Cc1cc(C)c(C2=C(OC(=O)OCC)C3(CCC(COC)C3)NC2=O)c(F)c1 (centres unmarked) [Example P-52] | VIOTR | 90% |
| CC#Cc1cc(C)c(C2=C(OC(=O)OCC)C3(CCC(COCCOC)C3)NC2=O)c(Cl)c1 (centres unmarked) [Example P-75] | VIOTR | 100% |

// fetch Pre-emergence action against VIOTR in %; item: CC#Cc1cc(C)c(C2=C(OC(=O)OCC)C3(CCC(COCC)C3)NC2=O)c(Br)c1 (centres unmarked) [Example P-35] ; system: VIOTR
100%

Identify measured Pre-emergence action against VIOTR in % obtained with VIOTR for CC#Cc1cc(Br)c(C2=C(O)C3(CCC(COC)C3)NC2=O)c(OC)c1 (centres unmarked) .
100%

Please report Pre-emergence action against VIOTR in % with VIOTR for item CC#Cc1cc(C)c(C2=C(OC(=O)OCC)C3(CCC(COCCOC)C3)NC2=O)c(OC)c1 (centres unmarked) [Example P-80] .
100%

Report value only: Pre-emergence action against VIOTR in %, VIOTR, CC#Cc1cc(Br)c(C2=C(OC(=O)C(C)C)C3(CCC(COCC)C3)NC2=O)c(CC)c1 (centres unmarked)
100%

Quote VIOTR Pre-emergence action against VIOTR in % for entry CC#Cc1cc(C)c(C2=C(O)C3(CCC(COCCC)C3)NC2=O)c(OC)c1 (centres unmarked) [Example I-59] .
100%

----------
System: POLCO
Assay: Pre-emergence herbicidal action against POLCO
Format: in vivo, Polygonum convolvulus
Conditions: 320 g/ha
quantity: Pre-emergence action against POLCO in % (%)
Answer with a number only, understood to be in %.

Worked examples follow.
| compound | uom | Pre-emergence action against POLCO in % |
| --- | --- | --- |
| C=CCOCC1CCC2(C1)NC(=O)C(c1c(C)cc(C#CC)cc1Cl)=C2O (stereo not shown) [Example I-46] | % | 90 |
| CC#Cc1cc(C)c(C2=C(OC(=O)OCC)C3(CCC(COC)C3)NC2=O)c(F)c1 (stereo not shown) [Example P-52] | % | 80 |
| C=CCOCC1CCC2(C1)NC(=O)C(c1c(C)cc(C#CC)cc1Cl)=C2OC(=O)OCC (stereo not shown) [Example P-72] | % | 100 |

Using known records, supply Pre-emergence action against POLCO in % for CC#Cc1cc(C)c(C2=C(OC(=O)C(C)C)C3(CCC(COCC)C3)NC2=O)c(Cl)c1 (stereo not shown)
90

Query Pre-emergence action against POLCO in % for C#CCOCC1CCC2(C1)NC(=O)C(c1c(C)cc(C#CC)cc1Cl)=C2O (stereo not shown)
90

Please indicate Pre-emergence action against POLCO in % recorded for CC#Cc1cc(C)c(C2=C(OC(=O)OCC)C3(CCC(COCCOC)C3)NC2=O)c(OC)c1 (stereo not shown)
90

Given C=CCOCC1CCC2(C1)NC(=O)C(c1c(C)cc(C#CC)cc1Br)=C2O (stereo not shown) , respond with its Pre-emergence action against POLCO in %.
80

Look up and report measured Pre-emergence action against POLCO in % for this entry: CC#Cc1cc(C)c(C2=C(OC(=O)OCC)C3(CCC(COCCC)C3)NC2=O)c(Cl)c1 (stereo not shown) [Example P-86]
90

Determine from records and report Pre-emergence action against POLCO in % for CC#Cc1cc(C)c(C2=C(OC(=O)OCC)C3(CCC(COCCOC)C3)NC2=O)c(Cl)c1 (stereo not shown) [Example P-75]
80

Return reported Pre-emergence action against POLCO in %. Input compound: CC#Cc1cc(C)c(C2=C(O)C3(CCC(COCCOC)C3)NC2=O)c(Cl)c1 (stereo not shown) [Example I-50]
90

Determine from records and report Pre-emergence action against POLCO in % for C=CCOCC1CCC2(C1)NC(=O)C(c1c(C)cc(C#CC)cc1Cl)=C2OC(=O)OCC (stereo not shown) [Example P-71]
90

Indicate its recorded Pre-emergence action against POLCO in %; the compound in question is CC#Cc1cc(C)c(C2=C(OC(=O)C(C)C)C3(CCC(COC)C3)NC2=O)c(Br)c1 (stereo not shown) [Example P-32]
80

Quickly give me recorded Pre-emergence action against POLCO in % for CC#Cc1cc(Br)c(C2=C(OC(=O)OCC)C3(CCC(COCC)C3)NC2=O)c(OCC)c1 (stereo not shown)
100

Give the reported value of Pre-emergence action against POLCO in % for this record: CC#Cc1cc(C)c(C2=C(O)C3(CCC(COCC)C3)NC2=O)c(Cl)c1 (stereo not shown)
100

Indicate its recorded Pre-emergence action against POLCO in %; the compound in question is CC#Cc1cc(Br)c(C2=C(OC(=O)OCC)[C@]3(CC[C@H](COCC)C3)NC2=O)c(OC)c1 (stereo in doubt)
80

Supply measured Pre-emergence action against POLCO in % of CC#Cc1cc(C)c(C2=C(OC(=O)OCC)C3(CCC(COCCOC)C3)NC2=O)c(Cl)c1 (stereo not shown) [Example P-76] in your reply.
100
